Sourced from paper PMC9569529

# Assay name: Microsomal stability in human liver microsomes
# Format: in vitro ADME
# Setup conditions: human, liver microsomes, hLM
I'd appreciate it if you could supply half-life at 10 µM values for the items below.

[
  {
    "Smiles record": "CN(CCCNC(=O)c1ccc(Cl)cc1)Cc1ccccc1",
    "half-life at 10 µM": "> 1 h"
  }
]

Shifting focus to the compound that follows.
QUERY: GET /values?readout=half-life at 10 µM&item= `O=C(NCCCNCc1ccccc1)c1ccc(Cl)cc1`
RESULT: > 9 h

----------
# Assay name: Pharmacokinetic study in plasma and brain
# Assay type: in vivo, male C57BL/6 mice
# Setup conditions: male, C57BL/6, mouse, po, 1 mg/kg, 30 min, brain; read-out: Brain C30
Property label: concentration at 30 min (ng/mL)
One number for each entry, in ng/mL.

QUERY: # get_value(readout='concentration at 30 min', item= `CN(CCCNC(=O)c1ccc(Cl)cc1)Cc1ccccc1` )
RESULT: 20.7
